Procedure Summary: protein stability index of a GFP-peptide fusion (GPS, HEK-293T) (PSI 1-6); higher = more stable;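 also: 24-mer peptide tiles fused after GFP, lentivirally expressed, FACS-sorted into six equal bins by GFP/DsRed ratio, decoded by Illumina sequencing, PSI is the read-weighted mean bin number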
Measurement Conditions: treatment: DMSO; c terminus: native
Measurement Type: protein stability index
Form: value (number only, do not type unit).

The examples below pair each entry with its known result.
| Seq Text | Experimental Result |
| --- | --- |
| SIEGTIPFSKPVKVYIMPKPARR [INTS4] | 2.42 |
| GRKQPGVHEEPVLKKWPKLKSKK [C22orf31] | 5.16 |
| SLGPALSTGPRGLCAMPQTGDAF [VENTX] | 2.44 |
| STICFGQGAARGFKSNKKKTKQC [ZNF511] | 4.86 |
| CATTNASGNSCGPCGTSQKGCCN [KRT34] | 3.78 |
| MNYRRLGGGVGVIKMTHCESHIW [KLHL20] | 2.75 |

We next turn to a different sequence, shown below.
Given item ANDYKDTLGKGSSLSAPSKKTSR [KRT71] , the value recorded as its protein stability index is 5.26

----------
Procedure Summary: protein stability index of a GFP-peptide fusion (GPS, HEK-293T) (PSI 1-6); higher = more stable
Measurement Conditions: treatment: DMSO; c terminus: a fixed tail appended
Each entry below lists one item and its recorded protein stability index value.
Could you keep your reply to the number by itself?

Past entries and their recorded results:
| Seq Text | Measurement Type | Experimental Result |
| --- | --- | --- |
| NQIMPKAGLLIIVLAIIAREGDCA [MAGEA3] | protein stability index | 3.02 |
| PFSSHTYSQASELPTDAVDCMSRE [FBXO34] | protein stability index | 5.25 |
| LIAEVMGEDIPEKIKDEVHPEVKC [C8orf76] | protein stability index | 4.51 |

Continue with the sequence presented below.
GET /value?item= LSKSRENPEEDEDQRNPAKESLET [SOAT1] &field=protein stability index returns 5.47

----------
Procedure Summary: protein stability index of a GFP-peptide fusion (GPS, HEK-293T) (PSI 1-6); higher = more stable
Measurement Conditions: treatment: DMSO; c terminus: a fixed tail appended
Outcome label depends on protein stability index relative to 3: at/above gives Y, below gives N.

| Seq Text | Classification |
| --- | --- |
| VVCVLLNLAGFILGCQGAQFVSSV [FAM189A2] | Y |
| RLWSHRSYKARLPLRLFLIIANTM [SCD] | N |
| FDLERENACATKEQKNHTFPRLNR [PLD5] | Y |
| DHDPTIEDAYKIRIRIDDEPANLD [RIT1] | Y |
| VGERLQDTHSWKSELQREMEALAA [TEKT4] | Y |

Reported protein stability index reaches at least 3 for LTGQKAVKVHGLLKTFVKQTDHIK [GFOD1] ?
N

Does HMTRHLEESEKAMQERVQRLEAAR [LRRC45] have a reported protein stability index of at least 3?
Y

----------
Procedure Summary: protein stability index of a GFP-peptide fusion (GPS, HEK-293T) (PSI 1-6); higher = more stable
Measurement Conditions: treatment: DMSO; c terminus: a fixed tail appended
The entries below come with measured protein stability index values attached.
Note: the reply should be a number with no unit written.

Example results:
| Seq Text | Measurement Type | Experimental Result |
| --- | --- | --- |
| KKRYEEEINKRTAAENEFVLLKKD [KRT71] | protein stability index | 5.07 |
| DVQLLHSWNNNDRSLNVFVKEDDK [SPSB1] | protein stability index | 4.88 |
| PPQGGCGGGGCDRYEPLPPSLPAA [KCNA3] | protein stability index | 4.53 |
| SGLFNHRGIHNIQKRYHCKECGKV [ZSCAN9] | protein stability index | 3.08 |

Consider CGADVNVRDSDDNSPLHIAALNNH [FEM1C] . Its measured protein stability index is 2.9

Lab note: SSASYEKENEMMKSHVMDQAINNA [IKZF1] gave protein stability index of 4.78

The value of protein stability index measured for the sequence IAQAEEQARKRQEEREKEAAEQAE [SMARCE1] turned out to be 5.24

For this sequence ( MSDKYHDSDEATAARLLFNMAGVT [DCTD] ), measured protein stability index is 3.53

protein stability index reported for this sequence LLISSCDWMAAMFGGPFVESSTRE [RHOBTB2] : 2.68
